- Test system: mouse RAW 264.7 cells incubated with E. coli O113 LPS
- Condition: RAW 264.7 cells with E. coli O113 LPS; concentration reversing LPS growth inhibition by 50%
Ends that are not written are not given here.
In Vitro LPS Neutralization EC50 values by entry
Use µg/mL as the unit, but write only the number.

H-KVPWLIQLFHKK-NH2 [XMP.392P] :: 24.03
GWLIQLFHKK-NH2 [XMP.388P] :: 8.08
H-KVKWLIQLF-NH2 [XMP.295P] :: 3.69
Ac-PWLIQLFHKK-NH2 [XMP.356P] :: 2.72

Entry H-KVKWLIQLFHK-NH2 [XMP.288P] — recorded In Vitro LPS Neutralization EC50 = 0.87

Per the records, this substance ( KWAIQLFHKK-NH2 [XMP.386P] ) has In Vitro LPS Neutralization EC50 equal to 9.75

====

- Experiment Description: Serum stability, anti-fungal activity after serum incubation by radial diffusion bioassay
- Format: in vitro ADME, rat or human serum
- Condition: Activity in Serum t ½ (hr.)
- Description: For these serum stability experiments, peptides were prepared by solid phase peptide sythesis and purified to 94% or greater purity as described in Example 1. Blood was collected from metaphane anesthesized rats by aortic bleed into Vacutainer™ tubes and allowed to clot at room temperature for approximately 30 minutes, then centrifuged at 3000 rpm (about 1000×g) for 10 minutes at room temperature and the serum aspirated. […]
Square brackets hold non-standard residues; d marks the D form. Peptide text beside a SMILES is read from it. Phe(4-NH2) = Nc1ccc(C[C@H](N)C(=O)O)cc1
Value Type: half-life at 0.5 mg/mL (h)
# output: bare number, implied unit h

CC[C@H](C)[C@H](NC(=O)[C@H](CC(C)C)NC(=O)[C@H](Cc1ccc(N)cc1)NC(=O)CNC(=O)[C@@H](NC(=O)[C@H](CCCCN)NC(=O)[C@H](CO)NC(=O)[C@@H](N)CCCCN)C(C)C)C(=O)N[C@@H](CCC(N)=O)C(=O)N[C@@H](CC(C)C)C(=O)N[C@@H](Cc1ccccc1)C(=O)N[C@@H](Cc1c[nH]cn1)C(=O)N[C@@H](CCCCN)C(=O)N[C@@H](CCCCN)C(N)=O [XMP.133] (H-KSKVG[Phe(4-NH2)]LIQLFHKK-NH2) :: 14

Kindly consider the entry below.
Entry CC[C@H](C)[C@H](NC(=O)[C@H](CC(C)C)NC(=O)[C@H](Cc1c[nH]c2ccccc12)NC(=O)[C@H](CCCCN)NC(=O)[C@@H]1CCCN1)C(=O)N[C@@H](CCC(N)=O)C(=O)N[C@@H](CC(C)C)C(=O)N[C@@H](CCCCN)C(=O)N[C@@H](CCCCN)C(N)=O — recorded half-life at 0.5 mg/mL = 1.3

====

- Experiment Description: Serum stability, anti-fungal activity after serum incubation by radial diffusion bioassay
- Type: in vitro ADME, rat or human serum
- Condition: Activity in Serum t ½ (hr.)
Square brackets hold non-standard residues; d marks the D form. Peptide text beside a SMILES is read from it. Orn = NCCC[C@H](N)C(=O)O
Value Type: half-life at 0.5 mg/mL (h)
Give just the number in h; leave the unit off.

CC[C@H](C)[C@H](NC(=O)[C@H](CC(C)C)NC(=O)[C@H](Cc1c[nH]c2ccccc12)NC(=O)[C@H](CCCCN)NC(=O)[C@H]1CCCN1)C(=O)N[C@@H](CCC(N)=O)C(=O)N[C@@H](CC(C)C)C(=O)N[C@@H](CCCCN)C(=O)N[C@@H](CCCCN)C(N)=O :: 4.7
CC[C@@H](C)[C@@H](NC(=O)[C@@H](CCC(N)=O)NC(=O)[C@@H](CC(C)C)NC(=O)[C@@H](Cc1ccccc1)NC(=O)[C@@H](Cc1c[nH]cn1)NC(=O)[C@@H](CCCCN)NC(=O)[C@@H](CCCCN)NC(C)=O)C(=O)N[C@H](CC(C)C)C(=O)N[C@H](Cc1c[nH]c2ccccc12)C(=O)N[C@H](CCCCN)C(N)=O :: 25.2

Continue with the compound presented below.
What the record says about CC[C@H](C)[C@H](NC(=O)[C@H](CC(C)C)NC(=O)[C@H](Cc1c[nH]c2ccccc12)NC(=O)[C@H](CCCCN)NC(C)=O)C(=O)N[C@@H](CCCN)C(=O)N[C@@H](CC(C)C)C(=O)N[C@@H](Cc1ccccc1)C(=O)N[C@@H](Cc1c[nH]cn1)C(=O)N[C@@H](CCCCN)C(=O)N[C@@H](CCCCN)C(N)=O [XMP.370] (Ac-KWLI[Orn]LFHKK-NH2) : half-life at 0.5 mg/mL is 4.7

====

Measured half-life at 0.5 mg/mL, listed per entry.
- Experiment Description: Serum stability, anti-fungal activity after serum incubation by radial diffusion bioassay
- Format: in vitro ADME, rat or human serum
- Condition: Activity in Serum t ½ (hr.)
Square brackets hold non-standard residues; d marks the D form. Peptide text beside a SMILES is read from it. * marks the point of attachment. d2Nal = N[C@H](Cc1ccc2ccccc2c1)C(=O)O; Lauroyl = CCCCCCCCCCCC(=O)*; Orn = NCCC[C@H](N)C(=O)O; Dab = NCC[C@H](N)C(=O)O
Number only, in h; omit the unit.

Consider the reported half-life at 0.5 mg/mL for these molecules:
CCCCCCCCCCCC(=O)N[C@@H](CCCCN)C(=O)N[C@@H](CCCCN)C(=O)N[C@@H](Cc1c[nH]c2ccccc12)C(=O)N[C@@H](C)C(=O)N[C@H](C(=O)N[C@@H](CCC(N)=O)C(=O)N[C@@H](CC(C)C)C(=O)N[C@@H](CCCCN)C(=O)N[C@@H](CCCCN)C(N)=O)[C@@H](C)CC [XMP.411] (Lauroyl-KKWAIQLKK-NH2; C-terminus assumed) :: 4.2
CC[C@H](C)[C@H](NC(=O)[C@H](CC(C)C)NC(=O)[C@H](Cc1c[nH]c2ccccc12)NC(=O)[C@@H](N)CCCCN)C(=O)N[C@@H](CCN)C(=O)N[C@@H](CC(C)C)C(=O)N[C@@H](Cc1ccccc1)C(=O)N[C@@H](Cc1c[nH]cn1)C(=O)N[C@@H](CCCCN)C(=O)N[C@@H](CCCCN)C(N)=O [XMP.371] (H-KWLI[Dab]LFHKK-NH2) :: 0.9
CC[C@H](C)[C@H](NC(=O)[C@H](CC(C)C)NC(=O)[C@H](Cc1c[nH]c2ccccc12)NC(=O)[C@@H](N)CCCCN)C(=O)N[C@@H](CCCN)C(=O)N[C@@H](CC(C)C)C(=O)N[C@@H](Cc1ccccc1)C(=O)N[C@@H](Cc1c[nH]cn1)C(=O)N[C@@H](CCCCN)C(=O)N[C@@H](CCCCN)C(N)=O [XMP.369] (H-KWLI[Orn]LFHKK-NH2) :: 1.4

The measured half-life at 0.5 mg/mL associated with CC[C@H](C)[C@H](NC(=O)[C@H](CC(C)C)NC(=O)[C@@H](Cc1ccc2ccccc2c1)NC(=O)[C@H](CCCCN)NC(=O)[C@@H](N)CCCCN)C(=O)N[C@@H](CC(C)C)C(=O)N[C@@H](CC(C)C)C(=O)N[C@@H](CCCCN)C(=O)N[C@@H](CCCCN)C(N)=O [XMP.347] (H-KK[d2Nal]LILLKK-NH2) reads 5.2

====

- Test system: Candida albicans SLU-1 strain
- Experiment Description: Serum stability, anti-fungal activity after serum incubation by radial diffusion bioassay
- Assay type: in vitro ADME, rat or human serum
Square brackets hold non-standard residues; d marks the D form. Peptide text beside a SMILES is read from it.
Value Type: Activity in Serum t ½ (hr.)

CC[C@H](C)[C@H](NC(=O)[C@H](CC(C)C)NC(=O)[C@@H](Cc1c[nH]c2ccccc12)NC(=O)[C@@H](CCCCN)NC(C)=O)C(=O)N[C@@H](CCC(N)=O)C(=O)N[C@@H](CC(C)C)C(=O)N[C@@H](Cc1ccccc1)C(=O)N[C@@H](Cc1c[nH]cn1)C(=O)N[C@H](CCCCN)C(=O)N[C@H](CCCCN)C(N)=O [XMP.364] :: indefinite
CC[C@@H](C)[C@@H](NC(=O)[C@@H](CCC(N)=O)NC(=O)[C@@H](CC(C)C)NC(=O)[C@@H](CCCCN)NC(=O)[C@H](N)CCCCN)C(=O)N[C@H](C)C(=O)N[C@H](Cc1c[nH]c2ccccc12)C(=O)N[C@H](CCCCN)C(=O)N[C@H](CCCCN)C(N)=O [XMP.376] (H-[dK][dK][dL][dQ][dI][dA][dW][dK][dK]-NH2) :: indefinite
CC[C@@H](C)[C@@H](NC(=O)[C@@H](CCC(N)=O)NC(=O)[C@@H](CC(C)C)NC(=O)[C@H](N)CCCCN)C(=O)N[C@H](CC(C)C)C(=O)N[C@H](Cc1c[nH]c2ccccc12)C(=O)N[C@H](CCCCN)C(=O)N[C@H](CCCCN)C(N)=O [XMP.374] :: indefinite
